study target: human MDM2 protein (amino acids 2-188) (Homo sapiens, UniProt Q00987)
Construct: human MDM2 protein (amino acids 2-188); made in house
Sequence (Q00987 2-188): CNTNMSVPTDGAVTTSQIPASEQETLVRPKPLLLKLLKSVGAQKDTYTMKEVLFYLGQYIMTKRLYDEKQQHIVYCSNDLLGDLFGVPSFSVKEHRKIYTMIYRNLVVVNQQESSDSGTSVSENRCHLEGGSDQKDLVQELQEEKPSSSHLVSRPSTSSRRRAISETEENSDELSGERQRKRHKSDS
experiment description: p53-MDM2 TR-FRET assay (p53-MDM2 Assay 1)
Type: binding
assay context: 1.25 nM MDM2-biotinylated, 10 nM Cy5-p53 peptide; read-out: IC50 (μM) of p53-Hdm2 inhibition (TR-FRET) Assay 1
Protocol: Time Resolved Fluorescence Energy Transfer (TR-FRET) Assay The inhibition of p53-MDM2 and p53-MDM4 interactions is measured by time resolved fluorescence energy transfer (TR-FRET). Fluorescence energy transfer (or Foerster resonance energy transfer) describes an energy transfer between donor and acceptor fluorescent molecules. […]
property measured: IC50 (µM)
Response body: numeric value in µM, unit text excluded.

Report IC50 for COc1cc2c(cc1OC(C)C)[C@H](c1ccc(Cl)cc1)N(c1ccc(C(C)(O)C3CC4CCC(C3)N4C(=O)N(C)C)cc1)C(=O)C2 (stereo partly drawn) please.
0.0027

What about this molecule? COc1cc2c(cc1OC(C)C)[C@H](c1ccc(Cl)cc1)N(c1ccc(C(C)(O)C3CCOCC3)cc1)C(=O)C2 (mixture of isomers)
0.0037

Another molecule to check: COc1cc2c(cc1OC(C)C)[C@H](c1ccc(Cl)cc1)N(c1ccc(C(C)(O)C3CCN(C(=O)OC(C)C)CC3)cc1)C(=O)C2 (stereo partly drawn)
0.0069

And what about the molecule COC(=O)N1CCC(C(C)(O)c2ccc(N3C(=O)Cc4cc(OC)c(OC(C)C)cc4[C@@H]3c3ccc(Cl)cc3)cc2)CC1 (stereo partly drawn) ?
0.0017

Record: COc1cc2c(cc1OC(C)C)[C@H](c1ccc(Cl)cc1)N(c1ccc(C(C)(O)C3CC4CCCC(C3)S4(=O)=O)cc1)C(=O)C2 (mixture of isomers)
0.0028

Next record, please: COc1cc2c(cc1OC(C)C)[C@H](c1ccc(Cl)cc1)N(c1ccc(C(C)(O)c3ccc(F)c(F)c3)cc1)C(=O)C2 (stereo partly drawn)
0.0446

----------
study target: human MDM4 protein (amino acids 2-185) (Homo sapiens)
Construct: human MDM4 protein (amino acids 2-185); made in house
Sequence (O15151 2-185): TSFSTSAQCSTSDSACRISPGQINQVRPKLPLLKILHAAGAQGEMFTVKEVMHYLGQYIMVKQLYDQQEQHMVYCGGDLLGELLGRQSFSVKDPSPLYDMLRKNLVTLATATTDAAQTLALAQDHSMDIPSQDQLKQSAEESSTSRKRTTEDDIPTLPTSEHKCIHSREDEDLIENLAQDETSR
experiment description: p53-MDM4 TR-FRET assay (p53-MDM4 Assay 1)
Assay type: binding
assay context: 2.5 nM MDM4-biotinylated, 10 nM Cy5-p53 peptide; read-out: IC50 (μM) of p53-Hdm4 inhibition (TR-FRET) Assay 1
Rule for this label: Fulfilled means IC50 is less than 5 µM; Not fulfilled means IC50 is at least 5 µM.

Given the entry COc1cc2c(cc1OC(C)C)[C@H](c1ccc(Cl)cc1)N(c1ccc(C(C)(O)C34CCC(CC3)C4)cc1)C(=O)C2 (some centres unmarked) , would its reported IC50 be below 5 µM?
Not fulfilled

And the next one, COc1cc2c(cc1OC(C)C)[C@H](c1ccc(Cl)cc1)N(c1ccc([C@@](C)(O)C34CC5CC(CC(C5)C3)C4)cc1)C(=O)C2 (single isomer, unassigned) ?
Not fulfilled

Next: COc1cc2c(cc1OC(C)C)[C@H](c1ccc(Cl)cc1)N(c1ccc(C(C)(O)C3CC4CCC(C3)N4C)cc1)C(=O)C2 (some centres unmarked)
Fulfilled

Further, for COc1cc2c(cc1OC(C)C)[C@H](c1ccc(Cl)cc1)N(c1ccc(C(C)(O)C3CCN(C(C)C)CC3)cc1)C(=O)C2 (some centres unmarked) ?
Fulfilled

Please answer likewise for COc1ccc(C(C)(O)c2ccc(N3C(=O)Cc4cc(OC)c(OC(C)C)cc4[C@@H]3c3ccc(Cl)cc3)cc2)cc1 (some centres unmarked)
Not fulfilled
